Property: Ki; scope: individual compounds
target: Gamma-aminobutyric acid receptor subunit alpha-5 (Homo sapiens); test: Binding affinity to GABA-A alpha5 (unknown origin)
Sequence (P31644 whole entry): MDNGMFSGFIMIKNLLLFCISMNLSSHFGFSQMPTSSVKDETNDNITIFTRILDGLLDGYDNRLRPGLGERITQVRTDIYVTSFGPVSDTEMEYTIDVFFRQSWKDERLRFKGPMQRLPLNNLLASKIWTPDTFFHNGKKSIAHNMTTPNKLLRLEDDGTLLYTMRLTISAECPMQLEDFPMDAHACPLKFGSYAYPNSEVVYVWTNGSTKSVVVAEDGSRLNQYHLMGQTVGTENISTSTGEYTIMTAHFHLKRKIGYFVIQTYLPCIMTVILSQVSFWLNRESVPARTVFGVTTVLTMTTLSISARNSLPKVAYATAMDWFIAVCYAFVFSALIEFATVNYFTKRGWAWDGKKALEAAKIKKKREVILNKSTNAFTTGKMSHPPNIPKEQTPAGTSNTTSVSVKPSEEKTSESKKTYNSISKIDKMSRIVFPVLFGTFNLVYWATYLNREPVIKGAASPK
// note: answer is a bare numeric in nM

Some solved cases for reference:
compound	Ki / nM
C#Cc1ccc2c(c1)C(c1ccccc1F)=N[C@H](C)c1c(C(=O)NC)ncn1-2	55
Clc1ccc2c(c1)-c1ncnn1Cc1c(Cl)ncn1-2	2
Cc1onc(-c2ccc(F)cc2)c1COc1ccc(C(=O)N2CCS(=O)(=O)CC2)cn1 [BASMISANIL]	4.7
CC(C)(O)c1cnn2c(-c3ccc(F)c(-c4c(F)cccc4C#N)c3)cnc2n1	1.1
C#Cc1ccc2c(c1)C(c1ccccc1F)=N[C@H](C)c1c(C(=O)N(C)C)ncn1-2	5000
FC(F)c1ncn2c1Cn1ncnc1-c1cc(Br)ccc1-2	4.6
CCCNC(=O)c1nnc2c(-c3cc(OC)ccc3OC)cccc2c1N [AZD6280]	1680
C#Cc1ccc2c(c1)C(c1ccccc1F)=N[C@H](C)c1c(C(=O)NC3CC3)ncn1-2	79
Cc1cc(-c2nnc3c4ccccc4c(OCc4cn(C)nn4)nn23)no1	0.66

Please report the recorded Ki for `COCc1ncn2c1CN(C)C(=O)c1cc(Cl)ccc1-2` .
6

---

target: Gamma-aminobutyric acid receptor subunit alpha-3 (Homo sapiens, UniProt P34903); test: Binding affinity to GABA-A alpha3 (unknown origin)
Sequence (P34903 whole entry): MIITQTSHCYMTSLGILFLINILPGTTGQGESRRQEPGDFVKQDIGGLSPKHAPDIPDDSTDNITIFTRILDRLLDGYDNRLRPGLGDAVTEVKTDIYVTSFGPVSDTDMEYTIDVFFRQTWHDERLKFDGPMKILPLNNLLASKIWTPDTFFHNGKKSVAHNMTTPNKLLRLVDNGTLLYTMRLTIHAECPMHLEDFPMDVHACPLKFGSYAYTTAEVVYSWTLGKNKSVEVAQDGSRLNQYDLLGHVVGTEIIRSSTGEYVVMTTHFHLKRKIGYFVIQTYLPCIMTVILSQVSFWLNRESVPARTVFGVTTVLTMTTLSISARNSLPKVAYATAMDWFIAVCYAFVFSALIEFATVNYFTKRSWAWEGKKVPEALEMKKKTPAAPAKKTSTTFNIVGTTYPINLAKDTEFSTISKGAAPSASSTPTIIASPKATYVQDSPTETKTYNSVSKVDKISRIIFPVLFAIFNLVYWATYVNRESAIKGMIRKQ
reportedMetric: log10 of Ki (log10 of the value in nM)
Friendly reminder: values = log10 of Ki, unit nM.

itemSmiles	log10 of Ki
c1ccc(-c2nnc3c4c(c(OCc5ccccn5)nn23)C2CCC4CC2)cc1	1.08
C#Cc1ccc2c(c1)C(c1ccccn1)=NCc1c(C(=O)OC)ncn1-2	3.00

Could you share which log10 of Ki value was measured for `Cc1cc(-c2nnc3c4ccccc4c(OCc4cn(C)nn4)nn23)no1` ?
-0.21

---

target: Gamma-aminobutyric acid receptor subunit alpha-2 (Homo sapiens, UniProt P47869); experiment: Binding affinity to GABA-A alpha2 (unknown origin)
Sequence (P47869 whole entry): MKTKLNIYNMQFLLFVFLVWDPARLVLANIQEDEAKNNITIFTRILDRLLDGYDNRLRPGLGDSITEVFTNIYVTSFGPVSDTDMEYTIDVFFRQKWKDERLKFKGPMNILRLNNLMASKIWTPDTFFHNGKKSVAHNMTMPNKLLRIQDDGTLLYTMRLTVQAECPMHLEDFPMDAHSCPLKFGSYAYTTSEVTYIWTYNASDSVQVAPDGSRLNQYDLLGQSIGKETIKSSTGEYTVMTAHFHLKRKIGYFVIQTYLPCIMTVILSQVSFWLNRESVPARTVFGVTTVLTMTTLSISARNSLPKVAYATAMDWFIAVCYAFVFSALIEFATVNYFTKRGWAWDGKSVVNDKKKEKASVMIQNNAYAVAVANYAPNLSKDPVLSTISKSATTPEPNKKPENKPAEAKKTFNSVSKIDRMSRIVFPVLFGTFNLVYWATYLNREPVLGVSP
Entries and their Ki values follow.
Entry rule: numbers only, all in nM.

Solved cases (5 shown):
compound	Ki (nM)
Cc1onc(-c2ccc(F)cc2)c1COc1ccc(C(=O)N2CCS(=O)(=O)CC2)cn1 [BASMISANIL]	502
C#Cc1ccc2c(c1)C(c1ccccc1F)=N[C@H](C)c1c(C(=O)N(C)C)ncn1-2	30000
Clc1ccc2c(c1)-c1ncnn1Cc1c(Cl)ncn1-2	24
Cc1cc(-c2nnc3c4ccccc4c(OCc4cn(C)nn4)nn23)no1	0.58
Cc1c(F)c(Nc2ccc(-c3cn(C)cn3)cn2)cc2c1ncn2CC1CC1	32

What value of measured Ki is listed for `CC(C)(O)c1cnn2c(-c3ccc(F)c(-c4c(F)cccc4C#N)c3)cnc2n1` ?
2

Cool, now `Cc1cc(-c2nncc3c(C(C)(C)C)c(OCc4ncnn4C)nn23)no1`
0.85

Proceed to `C#Cc1ccc2c(c1)C(c1ccccn1)=NCc1c(C(=O)OC)ncn1-2`
1000

Record: `C#Cc1ccc2c(c1)C(c1ccccc1F)=N[C@H](C)c1c(C(=O)NC3CC3)ncn1-2`
789

---

biological target: GABA-A receptor; alpha-1/beta-3/gamma-2 (Homo sapiens, UniProt P14867+P18507+P28472); test: Displacement of [3H]-Ro15-1788 from human GABAA alpha1beta3gamma2 expressed in HEK293 cell membranes incubated for 40 or 90 mins by liquid scintillation counting method
Sequence (P14867 whole entry): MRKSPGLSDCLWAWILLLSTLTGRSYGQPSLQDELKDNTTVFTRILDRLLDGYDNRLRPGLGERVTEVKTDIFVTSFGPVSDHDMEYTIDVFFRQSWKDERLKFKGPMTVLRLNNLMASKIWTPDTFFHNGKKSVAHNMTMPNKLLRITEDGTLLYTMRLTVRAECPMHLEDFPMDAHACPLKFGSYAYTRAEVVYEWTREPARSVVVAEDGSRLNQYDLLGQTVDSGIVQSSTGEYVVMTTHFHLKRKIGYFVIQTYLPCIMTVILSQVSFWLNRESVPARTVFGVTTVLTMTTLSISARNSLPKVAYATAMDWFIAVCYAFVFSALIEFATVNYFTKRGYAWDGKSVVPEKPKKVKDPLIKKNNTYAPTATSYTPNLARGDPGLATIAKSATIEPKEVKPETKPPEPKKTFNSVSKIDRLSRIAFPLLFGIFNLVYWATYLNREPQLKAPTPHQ
Sequence (P18507 whole entry): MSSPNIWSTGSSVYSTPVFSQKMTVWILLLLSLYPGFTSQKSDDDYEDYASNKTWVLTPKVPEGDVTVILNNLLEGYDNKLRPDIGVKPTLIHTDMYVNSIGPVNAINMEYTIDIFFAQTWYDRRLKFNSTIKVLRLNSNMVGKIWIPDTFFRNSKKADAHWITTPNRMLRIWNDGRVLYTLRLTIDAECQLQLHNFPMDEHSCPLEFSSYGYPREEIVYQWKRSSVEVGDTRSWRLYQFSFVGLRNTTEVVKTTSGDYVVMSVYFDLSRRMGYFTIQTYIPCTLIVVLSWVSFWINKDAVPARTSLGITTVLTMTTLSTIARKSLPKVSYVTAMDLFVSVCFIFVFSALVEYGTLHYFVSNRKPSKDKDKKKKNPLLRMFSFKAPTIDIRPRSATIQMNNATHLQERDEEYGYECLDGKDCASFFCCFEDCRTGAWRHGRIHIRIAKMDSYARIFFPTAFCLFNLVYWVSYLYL
Sequence (P28472 whole entry): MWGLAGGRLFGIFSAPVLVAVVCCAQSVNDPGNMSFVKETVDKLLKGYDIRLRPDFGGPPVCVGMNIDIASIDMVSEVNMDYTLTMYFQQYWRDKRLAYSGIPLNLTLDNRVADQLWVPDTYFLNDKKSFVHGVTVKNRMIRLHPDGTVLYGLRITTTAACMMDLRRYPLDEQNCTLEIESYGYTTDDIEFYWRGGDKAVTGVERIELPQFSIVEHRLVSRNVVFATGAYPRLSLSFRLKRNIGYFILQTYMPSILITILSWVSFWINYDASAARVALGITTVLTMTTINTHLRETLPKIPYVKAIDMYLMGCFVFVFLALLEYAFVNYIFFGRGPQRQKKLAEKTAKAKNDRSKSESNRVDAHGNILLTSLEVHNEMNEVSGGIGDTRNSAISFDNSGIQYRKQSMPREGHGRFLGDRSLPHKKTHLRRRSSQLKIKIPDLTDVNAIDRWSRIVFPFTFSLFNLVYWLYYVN
reportedMetric: pKi
Notebook: values listed as pKi are -log10 of the concentration (mol/L).

Given the entry `CC(C)(O)c1ccc2c(c1)ncn2-c1cccc(-c2ccccc2C#N)c1` , report its measured pKi.
9.39
